- TEST_TARGET: BCRP (ABCG2) (Homo sapiens)
- Sequence (Q9UNQ0 whole entry): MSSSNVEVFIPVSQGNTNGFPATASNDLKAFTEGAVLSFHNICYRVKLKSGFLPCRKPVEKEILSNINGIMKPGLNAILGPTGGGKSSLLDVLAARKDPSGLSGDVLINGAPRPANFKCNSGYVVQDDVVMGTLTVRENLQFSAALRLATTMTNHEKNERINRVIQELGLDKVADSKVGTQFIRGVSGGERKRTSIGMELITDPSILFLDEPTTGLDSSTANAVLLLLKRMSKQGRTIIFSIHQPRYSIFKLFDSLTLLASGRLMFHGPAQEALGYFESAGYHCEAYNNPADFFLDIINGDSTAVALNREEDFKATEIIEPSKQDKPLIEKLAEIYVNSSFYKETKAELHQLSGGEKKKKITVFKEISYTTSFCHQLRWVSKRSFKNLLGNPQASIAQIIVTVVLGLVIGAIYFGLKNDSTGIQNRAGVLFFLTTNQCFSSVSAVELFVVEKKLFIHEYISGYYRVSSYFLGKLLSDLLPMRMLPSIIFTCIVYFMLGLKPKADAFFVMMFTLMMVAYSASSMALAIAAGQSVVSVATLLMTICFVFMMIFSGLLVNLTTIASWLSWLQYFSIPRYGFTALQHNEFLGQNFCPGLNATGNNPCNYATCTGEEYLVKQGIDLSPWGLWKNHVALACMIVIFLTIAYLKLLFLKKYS
- PROCEDURE_DETAILS: Inhibition of BCRP expressed in HEK293 cells assessed as inhibition of drug efflux at 10 uM by flow cytometry
- Assay type: cell-based
- PROTOCOL_CONDITIONS: HEK293 cells expressing BCRP
Square brackets hold non-standard residues; d marks the D form. Peptide text beside a SMILES is read from it. * marks the point of attachment. Hyp = O=C(O)[C@@H]1C[C@@H](O)CN1; Cbz = O=C(OCc1ccccc1)*; PhAc = O=C(Cc1ccccc1)*; Boc = CC(C)(C)OC(=O)*; OtBu = CC(C)(C)O*
inhibition at 10 µM reference
Provide only the numeric value, understood in %.

Exercise: Which inhibition at 10 µM is reported for this compound? CC(C)(C)OC(=O)[C@H](CCCCNC(=O)OCc1ccccc1)NC(=O)[C@@H]1C[C@@H](OC(=O)Cc2ccccc2)CN1C(=O)OC(C)(C)C (Boc-[Hyp](PhAc)-Lys(Cbz)-OtBu)
Solution: 10

Consider now this further compound.
Exercise: Which inhibition at 10 µM is reported for this compound? "CC(C)(C)OC(=O)[C@H](CCCCNC(=O)OCc1ccccc1)NC(=O)[C@@H]1C[C@@H](OC(=O)C2CCCCC2)CN1C(=O)OC(C)(C)C"
Solution: 11.2

====

- TEST_TARGET: MDR1 (P-glycoprotein, ABCB1) (Homo sapiens, UniProt P08183)
- Sequence (P08183 whole entry): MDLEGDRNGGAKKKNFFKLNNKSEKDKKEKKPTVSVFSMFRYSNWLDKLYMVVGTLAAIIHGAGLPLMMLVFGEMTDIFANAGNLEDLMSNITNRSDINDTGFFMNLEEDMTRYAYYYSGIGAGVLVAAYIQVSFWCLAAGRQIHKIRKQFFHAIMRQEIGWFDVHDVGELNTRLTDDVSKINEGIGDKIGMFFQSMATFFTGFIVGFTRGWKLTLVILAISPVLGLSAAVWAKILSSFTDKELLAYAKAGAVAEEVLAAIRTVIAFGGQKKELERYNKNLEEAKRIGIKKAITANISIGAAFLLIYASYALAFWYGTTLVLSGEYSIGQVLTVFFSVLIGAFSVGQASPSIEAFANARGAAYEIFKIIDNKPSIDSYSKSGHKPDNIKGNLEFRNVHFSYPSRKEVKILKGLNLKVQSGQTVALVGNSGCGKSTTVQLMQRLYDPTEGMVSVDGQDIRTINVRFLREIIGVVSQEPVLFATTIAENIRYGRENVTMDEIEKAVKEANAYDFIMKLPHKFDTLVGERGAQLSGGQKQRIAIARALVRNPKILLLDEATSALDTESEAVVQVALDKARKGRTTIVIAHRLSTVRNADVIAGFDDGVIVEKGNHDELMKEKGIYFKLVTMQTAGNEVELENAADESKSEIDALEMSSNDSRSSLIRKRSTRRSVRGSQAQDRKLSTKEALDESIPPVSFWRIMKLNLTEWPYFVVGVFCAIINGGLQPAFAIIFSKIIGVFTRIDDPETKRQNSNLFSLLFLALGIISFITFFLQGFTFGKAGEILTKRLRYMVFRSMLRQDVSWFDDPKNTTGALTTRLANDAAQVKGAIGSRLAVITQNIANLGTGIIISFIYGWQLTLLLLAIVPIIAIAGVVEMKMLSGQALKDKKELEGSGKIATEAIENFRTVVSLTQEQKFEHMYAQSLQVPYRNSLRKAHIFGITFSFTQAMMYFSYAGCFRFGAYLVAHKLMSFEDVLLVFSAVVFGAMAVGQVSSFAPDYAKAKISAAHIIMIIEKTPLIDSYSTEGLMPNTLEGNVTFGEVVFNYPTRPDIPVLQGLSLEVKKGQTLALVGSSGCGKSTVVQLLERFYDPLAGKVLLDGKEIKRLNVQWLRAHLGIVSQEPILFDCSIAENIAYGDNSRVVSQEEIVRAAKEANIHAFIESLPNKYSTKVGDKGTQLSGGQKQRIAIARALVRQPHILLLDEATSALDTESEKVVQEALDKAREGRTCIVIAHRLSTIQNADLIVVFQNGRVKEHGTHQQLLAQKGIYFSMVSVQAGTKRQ
- PROCEDURE_DETAILS: Inhibition of human MDR1 expressed in mouse NIH3T3 cells assessed as inhibition of drug efflux in at 10 uM by flow cytometry
- Format: cell-based
- PROTOCOL_CONDITIONS: mouse NIH3T3 cells expressing human MDR1
Square brackets hold non-standard residues; d marks the D form. Peptide text beside a SMILES is read from it. * marks the point of attachment. Aad = N[C@@H](CCCC(=O)O)C(=O)O; Cbz = O=C(OCc1ccccc1)*; Boc = CC(C)(C)OC(=O)*; OBn = c1ccc(CO*)cc1; OtBu = CC(C)(C)O*
Where inhibition at 10 µM equals or exceeds 50%, the correct label is yes (1); where it does not, the label is no (0).

Reference set (5 entries):
Exercise: Threshold query (inhibition at 10 µM >= 50%) on "CC(C)(C)OC(=O)CCC[C@@H](Cc1ccc(OC(C)(C)C)cc1)NC(=O)OC(C)(C)C"
Solution: yes (1)

Exercise: Repeat with "O=C(CCC(=O)N[C@@H](CCC(=O)OCC1CCCCC1)C(=O)OCc1ccccc1)N[C@@H](CCC(=O)OCc1ccccc1)C(=O)OCc1ccccc1"
Solution: no (0)

Exercise: Repeat with "CC(C)(C)OC(=O)N[C@@H](CCOC(=O)Cc1ccccc1)C(=O)N[C@@H](CCCCNC(=O)OCc1ccccc1)C(=O)OC(C)(C)C"
Solution: yes (1)

Exercise: Repeat with CC(C)(C)OC(=O)N[C@@H](CCCC(=O)OCc1ccccc1)C(=O)N[C@@H](CCCCNC(=O)OCc1ccccc1)C(=O)OC(C)(C)C (Boc-[Aad](OBn)-Lys(Cbz)-OtBu)
Solution: yes (1)

Exercise: Repeat with "CC(C)(C)OC(=O)N[C@@H](CCCOC(=O)C1CCCCC1)C(=O)N[C@@H](CCCCNC(=O)OCc1ccccc1)C(=O)OC(C)(C)C"
Solution: yes (1)

Further cases:
Exercise: Threshold query (inhibition at 10 µM >= 50%) on "CC(C)(C)OC(=O)[C@H](CCCCNC(=O)OCc1ccccc1)NC(=O)[C@@H]1C[C@@H](OC(=O)C2CCCCC2)CN1C(=O)OC(C)(C)C"
Solution: yes (1)

Where do these numbers come from? They come from ChEMBL document CHEMBL1250516.
